# key: entry, value: pEC50
target: cloned KOR (Rattus norvegicus); assay: [35S]GTPγS assay at KOR; conditions: SEM
Sequence (P34975 whole entry): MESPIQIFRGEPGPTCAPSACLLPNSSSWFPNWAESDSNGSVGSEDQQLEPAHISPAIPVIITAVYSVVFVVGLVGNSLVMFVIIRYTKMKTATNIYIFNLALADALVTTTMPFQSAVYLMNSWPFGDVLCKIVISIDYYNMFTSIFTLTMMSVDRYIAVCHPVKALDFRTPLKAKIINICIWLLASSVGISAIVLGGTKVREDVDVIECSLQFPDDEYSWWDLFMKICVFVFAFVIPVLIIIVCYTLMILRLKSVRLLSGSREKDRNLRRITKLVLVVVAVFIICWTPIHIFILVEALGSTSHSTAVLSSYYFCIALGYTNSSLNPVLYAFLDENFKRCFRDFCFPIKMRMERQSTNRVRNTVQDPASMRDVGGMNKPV
Where a SMILES comes first, the peptide text is derived from it.
Would you please state pEC50, meaning minus log10 of the concentration in mol/L, as a bare number?

molecule="CC(C)C[C@H](NC(=O)[C@H](Cc1ccccc1)NC(=O)CNC(=O)CNC(=O)[C@@H](N)Cc1ccc(O)cc1)C(=O)N[C@@H](CCCNC(=N)N)C(=O)N[C@@H](C)C(=O)N[C@@H](CCC(N)=O)C(=O)N[C@@H](Cc1ccccc1)C(=O)N[C@@H](CCCCN)C(=O)N[C@H](C(=O)N[C@H](C(=O)N[C@H](C(N)=O)[C@@H](C)O)C(C)C)C(C)C [Compound 5] (H-YGGFLRAQFKVVT-NH2)" target="cloned KOR (Rattus norvegicus)" readout=pEC50 reported_measurement=6.10
molecule="CC(C)C[C@H](NC(=O)[C@H](Cc1ccccc1)NC(=O)CNC(=O)CNC(=O)[C@@H](N)Cc1ccc(O)cc1)C(=O)N[C@@H](CCCNC(=N)N)C(=O)N[C@@H](CCCNC(=N)N)C(=O)N[C@@H](CCC(N)=O)C(=O)N[C@@H](C)C(=O)N[C@@H](CCCCN)C(=O)N[C@H](C(=O)N[C@H](C(=O)N[C@H](C(N)=O)[C@@H](C)O)C(C)C)C(C)C [Compound 7] (H-YGGFLRRQAKVVT-NH2)" target="cloned KOR (Rattus norvegicus)" readout=pEC50 reported_measurement=7.83
molecule="CC(C)C[C@H](NC(=O)[C@H](Cc1ccccc1)NC(=O)CNC(=O)CNC(=O)[C@@H](N)Cc1ccc(O)cc1)C(=O)N[C@@H](C)C(=O)N[C@@H](CCCNC(=N)N)C(=O)N[C@@H](CCC(N)=O)C(=O)N[C@@H](Cc1ccccc1)C(=O)N[C@@H](CCCCN)C(=O)N[C@H](C(=O)N[C@H](C(=O)N[C@H](C(N)=O)[C@@H](C)O)C(C)C)C(C)C [Compound 4] (H-YGGFLARQFKVVT-NH2)" target="cloned KOR (Rattus norvegicus)" readout=pEC50 reported_measurement=6.94

Next molecule, pEC50 to be filled in.
Record summary for CC(C)C[C@H](NC(=O)[C@H](Cc1ccccc1)NC(=O)CNC(=O)CNC(=O)[C@@H](N)Cc1ccc(O)cc1)C(=O)N[C@@H](CCCNC(=N)N)C(=O)N[C@@H](CCCNC(=N)N)C(=O)N[C@@H](CCC(N)=O)C(=O)N[C@@H](Cc1ccccc1)C(=O)N[C@@H](CCCCN)C(=O)N[C@H](C(=O)N[C@H](C(=O)N[C@H](C(N)=O)[C@@H](C)O)C(C)C)C(C)C [Dyn B amide, reference compound] : reported pEC50 = 8.04
